molecular target: Mad2^L153A (in the background of R133A) (human, UniProt Q13257 1-205, L153A | R133A); experiment: ITC

{"binder": "EHQKAWALNLNGFDVEEAKILRLSGKPQ (domain or fragment, Limits not printed. 111-138 is the conventional Mad2-binding fragment of human Cdc20 around the KILR motif (129-132). Check residues come from the candidate's motif feature, not from the paper.) [Mad2-binding motif of Cdc20]", "Kd": "210 nM"}
